system: PI-3K; test: PI-3K-dependent AKT phosphorylation; type: cell-based, human; settings: read-out: IC50 PI-3K-mediated AKT phosphorylation; SW620 cells, IGF-1 stimulated
pIC50: −log10 of the molar value.
VALUE KIND: pIC50

Measured pIC50 (PI-3K), entry CCN1CCN(CC(=O)Nc2ccc(-c3cccc4c(=O)cc(N5CCOCC5)oc34)c3sc4ccccc4c23)CC1 [KU-0060648] : < 5.00

----------
test: plasma pharmacokinetics following different routes of administration; format: in vivo, Balb C mice; details: female, Balb C, mouse, ip, 10 mg/kg
VALUE KIND: bioavailability (%)
Number only, in %; omit the unit.

Lab book: bioavailability of CCN1CCN(CC(=O)Nc2ccc(-c3cccc4c(=O)cc(N5CCOCC5)oc34)c3sc4ccccc4c23)CC1 noted as 78
